Cited source for all entries: patent US20260022127A1

system: SKBR-3 cell line (human breast cancer); assay: 2D-cytotoxicity assay of free payloads (Cell titer glow, 72 hours); assay type: cell-based; details: Homo sapiens, SK-BR-3, 72 h, SKBR-3, 5,000 cells/well, payload in ACN:Water
readout_type: pIC50
// field semantics: pIC50 = negative decimal log of concentration (mol/L)

Memo: "CC[C@@]1(O)C(=O)OCc2c1cc1n(c2=O)Cc2c-1nc1cc(F)c(C)c3c1c2C(=O)CC3" , reported pIC50: 7.56
